molecular target: T1, AAV9; assay: SPR, AAV on CM5 chip;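 also: surface plasmon resonance with AAV amine-coupled to the chip as ligand, nanobodies injected as analyte over a concentration series, rate constants and affinity fitted from binding curves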
T1 construct: also called adeno-associated virus serotype 9
For each record, write down the corresponding kon.
Hi! Could you send only the number? It should be in M⁻¹ s⁻¹, unit omitted.

In: Request the reported kon associated with A4-038 (VHH) VHH: VQLQESGGGLVQPGGSLRLSCAASGSHFSINTMGWYRQAPGKQRELVATVTRGGSTNYANSVKGRFTISRDNAKNTVYLQMNSLRPEDTAVYYCHLDEVRQSSWTTSNLWGQGTQVTVSS
Out: 151000

In: Request the reported kon associated with A4-044 (VHH) VHH: VQLQESGGGLVQPGGSLRLSCAASGSSFSINTMGWYRQAPGKQRELVATVTRGGVTNYADSVKGRFTISRDNAKNTVYLQMNSLRPEDTAVYYCHVDEVRQSSWTTSNLWGQGTQVTVSS
Out: 143000

In: Request the reported kon associated with A4-046 (VHH) VHH: VQLQESGGGLVQPGGSLRLSCAASGSRFSINTMGWYRQAPGKQRELVATVTRGGSTNYADSVKGRFTISRDNAKNTVYLQMNSLRPEDTAVYYCHVDEVRQSSWTTSNLWGQGTQVTVSS
Out: 167000

In: Request the reported kon associated with A4-029 (VHH) VHH: VQLQESGGGLVQPGGSLRLSCAASGSNFSINTMGWYRQRAGKQRELVATVTRGGSTNYADSVKGRFTISRDNAKNTVYLQMNSLRPEDTAVYYCHIDEIRESSWTTSNLWGQGTQVTVSS
Out: 96900
